Reported Kd values are given for each entry in this list.
- tested_system: T1, BCL-W (Homo sapiens)
- T1 chain: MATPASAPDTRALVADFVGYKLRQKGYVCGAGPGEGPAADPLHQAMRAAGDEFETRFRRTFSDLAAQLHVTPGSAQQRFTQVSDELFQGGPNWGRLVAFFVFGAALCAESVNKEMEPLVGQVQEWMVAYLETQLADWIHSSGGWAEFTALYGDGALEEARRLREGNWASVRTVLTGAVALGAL
- assay_comment: BLI
Returns: string containing the number followed by the unit.

αBAK1 (designed binder, biotinylated for BLI (Avi tag). Limits not printed in the text (constructs as in cited earlier work); the soluble form lacking the C-terminal tail is taken by convention. Any solubility mutations are not stated) GADPKKVLDKAKDQMENVVRKLKQILEELAKEARKLDLTQDEKIELILRYIVAHLAAIGDIEEAIREAKEEADKLKKAGLVNSQQLDEFKRRLEELHKEADRKRRDYAEEFRNKLEYG    9.55 µM

Now let's try a different one.
Kindly indicate its recorded Kd. Item: BAX-CDP01 (BAX-targeting computationally designed protein 01) (designed binder, biotinylated for BLI (Avi tag). Limits not printed in the text (constructs as in cited earlier work); the soluble form lacking the C-terminal tail is taken by convention. Any solubility mutations are not stated) GADPKKVLDKARDQAENRVRELAQKLEELYKEARKLDLTQEERRKLEKRYKAAMEEAIKDIREAIRQAKQEADKLKKAGLVNSQQLKELKQRLNELAIAAALRAIGDAIEFRRKLQYG
6 µM

Entry source: paper PMC12412652
